target: ICAM-1 expressed on cells (JY cells; stimulated endothelial cells) (UniProt P05362 28-532, limits assumed); assay: cell-based or functional assay
Sequence (P05362 28-532 limits assumed): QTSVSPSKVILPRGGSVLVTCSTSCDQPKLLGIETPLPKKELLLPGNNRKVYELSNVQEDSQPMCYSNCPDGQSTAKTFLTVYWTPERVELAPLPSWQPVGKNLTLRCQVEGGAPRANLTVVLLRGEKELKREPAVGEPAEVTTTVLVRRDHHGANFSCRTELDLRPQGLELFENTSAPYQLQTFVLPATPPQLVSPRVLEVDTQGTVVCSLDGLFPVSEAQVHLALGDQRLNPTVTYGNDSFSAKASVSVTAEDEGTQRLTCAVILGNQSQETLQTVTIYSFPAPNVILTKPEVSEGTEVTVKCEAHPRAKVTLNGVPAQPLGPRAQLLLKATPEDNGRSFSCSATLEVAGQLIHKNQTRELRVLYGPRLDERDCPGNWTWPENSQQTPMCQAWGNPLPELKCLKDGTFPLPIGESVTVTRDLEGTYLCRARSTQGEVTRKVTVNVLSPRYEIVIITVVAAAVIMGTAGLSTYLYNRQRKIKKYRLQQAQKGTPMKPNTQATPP
Bridge positions count the residues as written; N and C are the ends. Ends that are not written are not given here.
Returns: string. Value is YES if measured Percent JY Aggregation is below 6 percent, and NO if it is greater than or equal to it.

QUERY: Strictly below 6 percent: is that where Percent JY Aggregation of CLRLSRIMC (disulfide 1-9) [randomized cyclic peptide CLRLSRIMC (SEQ ID NO: 56)] sits?
RESULT: NO

QUERY: Strictly below 6 percent: is that where Percent JY Aggregation of CLIRMRSAC (disulfide 1-9) [CLIRMRSAC (SEQ ID NO: 44), cyclic disulfide-linked peptide] sits?
RESULT: YES

QUERY: Strictly below 6 percent: is that where Percent JY Aggregation of CLLRMRSIC (disulfide 1-9, Synthesized by Biopeptide; consensus derived from phage display on ICAM-1) [consensus peptide CLLRMRSIC (SEQ ID NO: 1), cyclized in the disulfide-linked form] sits?
RESULT: NO

QUERY: Strictly below 6 percent: is that where Percent JY Aggregation of CVLRMRSAC (disulfide 1-9) [CVLRMRSAC (SEQ ID NO: 42), cyclic disulfide-linked peptide] sits?
RESULT: NO

QUERY: Strictly below 6 percent: is that where Percent JY Aggregation of CLLRMRSLC (disulfide 1-9) [CLLRMRSLC (SEQ ID NO: 47), cyclic disulfide-linked peptide] sits?
RESULT: NO

QUERY: Strictly below 6 percent: is that where Percent JY Aggregation of CILRMRSAC (disulfide 1-9) [CILRMRSAC (SEQ ID NO: 43), cyclic disulfide-linked peptide] sits?
RESULT: YES

Source: patent US20010034326A1
